# targetDesc: CB1 (mutant) (Homo sapiens, UniProt P21554)
# Sequence (P21554 1-417, change not shown): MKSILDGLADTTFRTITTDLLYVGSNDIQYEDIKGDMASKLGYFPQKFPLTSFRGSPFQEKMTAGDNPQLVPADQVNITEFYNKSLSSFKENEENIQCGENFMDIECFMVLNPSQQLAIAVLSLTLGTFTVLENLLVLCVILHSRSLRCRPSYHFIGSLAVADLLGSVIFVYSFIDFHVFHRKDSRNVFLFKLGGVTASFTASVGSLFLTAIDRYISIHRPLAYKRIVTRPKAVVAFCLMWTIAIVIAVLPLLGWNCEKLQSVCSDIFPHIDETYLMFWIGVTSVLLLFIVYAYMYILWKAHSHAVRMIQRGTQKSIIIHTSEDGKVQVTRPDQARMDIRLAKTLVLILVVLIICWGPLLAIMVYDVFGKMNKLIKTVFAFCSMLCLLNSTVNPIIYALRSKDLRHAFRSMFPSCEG
# assayInfo: R-SAT functional receptor assay, CB1 (mutant, truncated after amino acid 417)
# Format: cell-based
# conditionDescription: Appendix A; R-SAT CB1; receptor form not stated; relative to SR141716 (100%); read-out: % Inhibition

molecule: CCCC1=Nc2cc(C(=O)NCCN3CCN(c4cccc(Cl)c4)CC3)ccc2Sc2ccccc21
Emax [%]: 76
//
molecule: O=C(c1ccc2c(c1)N=C(C1CCCCC1)c1ccccc1S2)N1CCCCC1
Emax [%]: 26
//
molecule: CC(C)NC(=O)c1ccc2c(c1)N=C(c1ccc(Cl)cc1)c1ccccc1S2 [drawing 576]
Emax [%]: 98
//
molecule: O=C(NN1CCCCC1)c1ccc2c(c1)N=C(c1ccc(Cl)cn1)c1ccccc1S2 [drawing 959]
Emax [%]: 112
//
molecule: O=C(NN1CCCCC1)c1ccc2c(c1)N=C(c1ccc(F)cn1)c1ccccc1S2 [drawing 660]
Emax [%]: 92
//
molecule: O=C(NCc1cccnc1)c1ccc2c(c1)N=C(c1ccc(Cl)cc1)c1ccccc1S2 [drawing 1093]
Emax [%]: 88
//
molecule: CCCCN(C)C(=O)c1ccc2c(c1)N=C(c1ccc(Cl)cc1)c1ccccc1S2
Emax [%]: 92
//
molecule: CCCC1=Nc2cc(C(=O)N3CCN(c4cc(C)ccc4C)CC3)ccc2Sc2ccccc21
Emax [%]: 90
//
molecule: O=C(NN1CCCC1)c1ccc2c(c1)N=C(c1ccccc1F)c1ccccc1S2
Emax [%]: 69

* * *

Entries annotated with measured Binding rat Inh %
# targetDesc: native CB1 receptors (Rattus norvegicus, UniProt P20272)
# Sequence (P20272 whole entry): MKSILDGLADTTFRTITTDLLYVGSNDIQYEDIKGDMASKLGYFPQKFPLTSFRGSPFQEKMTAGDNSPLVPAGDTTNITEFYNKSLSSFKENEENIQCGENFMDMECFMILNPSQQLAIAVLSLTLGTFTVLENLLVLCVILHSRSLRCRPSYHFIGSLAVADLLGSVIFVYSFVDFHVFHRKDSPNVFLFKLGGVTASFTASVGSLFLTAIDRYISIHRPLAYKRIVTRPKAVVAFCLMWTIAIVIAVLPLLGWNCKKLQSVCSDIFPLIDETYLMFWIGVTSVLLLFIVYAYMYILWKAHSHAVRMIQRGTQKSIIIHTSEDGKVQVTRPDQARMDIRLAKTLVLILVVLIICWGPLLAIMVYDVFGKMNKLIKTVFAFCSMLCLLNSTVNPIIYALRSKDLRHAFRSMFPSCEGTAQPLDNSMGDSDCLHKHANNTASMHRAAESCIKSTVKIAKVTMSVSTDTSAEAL
# assayInfo: CB1 receptor rat binding assay ([3H]SR141716A, rat brain membranes)
# conditionDescription: rat brain membranes, [3H]SR141716A
measurementKind: Binding rat Inh %

molecule: CCCCNC(=O)c1ccc2c(c1)N=C(c1ccc(OC)cc1)c1ccccc1S2 [drawing 1532]
endpointValue: 82%

molecule: COc1ccc(C2=Nc3cc(C(=O)NCC(C)C)ccc3Sc3ccccc32)cc1 [drawing 1508]
endpointValue: 79%

molecule: Cc1ccc(CNC(=O)c2ccc3c(c2)N=C(c2ccsc2)c2ccccc2S3)o1 [drawing 1346]
endpointValue: 89%

* * *

# targetDesc: native CB1 receptors (Rattus norvegicus)
# assayInfo: CB1 receptor rat binding assay ([3H]SR141716A, rat brain membranes)
# conditionDescription: rat brain membranes, [3H]SR141716A; read-out: Binding rat pKi (converted)
Entries annotated with measured Ki

molecule: O=C(NCc1ccccn1)c1ccc2c(c1)N=C(c1cccc(Br)c1)c1ccccc1S2 [drawing 1419]
Ki (nM): 39.8
--
molecule: O=C(NCc1ccccn1)c1ccc2c(c1)N=C(c1ccc(Br)cc1)c1ccccc1S2 [drawing 1469]
Ki (nM): 50.1
--
molecule: CCCCNC(=O)c1ccc2c(c1)N=C(c1ccccc1)c1ccccc1S2 [drawing 1300]
Ki (nM): 20
--
molecule: CC(C)NC(=O)c1ccc2c(c1)N=C(c1ccc(F)cc1)c1ccccc1S2 [drawing 1429]
Ki (nM): 50.1

* * *

# targetDesc: native CB1 receptors (Rattus norvegicus)
# assayInfo: CB1 receptor rat binding assay ([3H]SR141716A, rat brain membranes)
# conditionDescription: rat brain membranes, [3H]SR141716A; read-out: Binding rat pKi (converted)
Decision: Ki beneath 30 nM gives TRUE; Ki meeting or exceeding 30 nM gives FALSE.

compound: CC(C)CNC(=O)c1ccc2c(c1)N=C(c1ccsc1)c1ccccc1S2 [drawing 1303]
class: TRUE
//
compound: O=C(NCCc1ccccn1)c1ccc2c(c1)N=C(c1ccc(F)cc1)c1ccccc1S2 [drawing 1411]
class: FALSE
//
compound: CC(CNC(=O)c1ccc2c(c1)N=C(N1CCCCC1)c1ccccc1S2)c1ccccc1 (centres unmarked) [drawing 1455]
class: TRUE
//
compound: O=C(NCc1ccco1)c1ccc2c(c1)N=C(c1ccc(Cl)s1)c1ccccc1S2 [drawing 1383]
class: TRUE
//
compound: O=C(NCCc1cccc(Cl)c1)c1ccc2c(c1)N=C(N1CCCCC1)c1ccccc1S2 [drawing 1222]
class: TRUE
//
compound: COc1ccc(C2=Nc3cc(C(=O)NC4CCCC4)ccc3Sc3ccccc32)cc1 [drawing 1364]
class: FALSE
//
compound: CC(CNC(=O)c1ccc2c(c1)N=C(c1ccc(Cl)cc1)c1ccccc1S2)c1ccccc1 (centres unmarked) [drawing 1288]
class: TRUE
//
compound: O=C(NCc1ccc(Cl)cc1Cl)c1ccc2c(c1)N=C(c1ccc(Cl)cc1)c1ccccc1S2 [drawing 1421]
class: FALSE
